- tested on: PI3K alpha (Homo sapiens)
- Construct: for the p110-a subunit (with a deletion of the first 20 amino acids) are generated; His tag (C); Tn5 (Trichoplusia ni) or TiniPro insect cells
- experiment: Enzymatic PI3K alpha isoform inhibition (lipid kinase activity, Kinase-Glo)
- particulars: enzymatic assay
observed property: IC50 (nM)

[1] COc1ccc(-c2ccc3ncnc(-c4cncc(C(=O)N5CCN(C)C(C)(C)C5)c4)c3c2)cn1
[2] COc1ncc(-c2ccc3ncnc(-c4cncc(C(=O)N5CCN(C)C(C)(C)C5)c4)c3c2)cc1F
[3] COc1ccc(-c2ccc3ncnc(-c4cncc(C(=O)N5CCOC(C)(C)C5)c4)c3c2)cn1
[4] COc1ccc(-c2ccc3ncnc(-c4cncc(C(=O)N5CCNCC(F)(F)C5)c4)c3c2)cc1C(F)(F)F
Data request: Rank items: key IC50, increasing. // rank by listing labels in the order requested
Data returned: 2, 1, 3, 4
(2: 60.5 nM, 1: 123 nM, 3: 306 nM, 4: 904 nM)

* * *

- tested on: PI3K alpha (Homo sapiens)
- Construct: for the p110-a subunit (with a deletion of the first 20 amino acids) are generated; His tag (C); Tn5 (Trichoplusia ni) or TiniPro insect cells
- experiment: Enzymatic PI3K alpha isoform inhibition (lipid kinase activity, Kinase-Glo)
- particulars: enzymatic assay
observed property: IC50 (µM)

Record excerpt, results attached:
compound=CN1CCN(C(=O)c2cccc(-c3ncnc4ccc(-c5ccc(N6CCCC6)nc5)cc34)c2)CC1 endpoint_result=1.23
compound=COc1ccc(-c2ccc3ncnc(-c4cccc(C(=O)N5C[C@@H]6C[C@H]5CN6C)c4)c3c2)cn1 endpoint_result=0.146
compound=CC1(C)CN(C(=O)c2cncc(-c3ncnc4ccc(-c5cncc(S(C)(=O)=O)c5)cc34)c2)CCO1 endpoint_result=0.583

[a] COc1ccc(-c2ccc3ncnc(-c4cccc(C(=O)N5CCOC(C)(C)C5)c4)c3c2)cn1
[b] COc1ncc(-c2ccc3ncnc(-c4cncc(C(=O)N5CCS(=O)(=O)CC5)c4)c3c2)cc1C#N
Data request: Between item a and item b , which reported IC50 is smaller? Write down the label of the entry you select.
Data returned: a
(a: 0.281 µM, b: 0.55 µM)

[1] CCOc1ccc(-c2ccc3ncnc(-c4cccc(C(=O)N5CCN(C)C(C)(C)C5)c4)c3c2)cn1
[2] COc1ccc(-c2ccc3ncnc(-c4cccc(C(=O)N5CCN(C)C[C@@H]5C)c4)c3c2)cn1
[3] COc1ccc(-c2ccc3ncnc(-c4cccc(C(=O)N5CCN(C)C(C)(C)C5)c4)c3c2)cn1
Data request: Put the items in sequence by IC50, from largest down. When ranking, write the labels in the order the request describes.
Data returned: 1, 2, 3

[I] CNc1ncc(-c2ccc3ncnc(-c4cccc(C(=O)N5CCN(C)CC5)c4)c3c2)cc1C
[II] COc1ncc(-c2ccc3ncnc(-c4cccc(C(=O)N5CCOC(C)(C)C5)c4)c3c2)cn1
Data request: Between I and II , which one shows the smaller IC50 number? Write down the label attached to your selection.
Data returned: I

* * *

- tested on: PI3K alpha (Homo sapiens)
- Construct: for the p110-a subunit (with a deletion of the first 20 amino acids) are generated; His tag (C); Tn5 (Trichoplusia ni) or TiniPro insect cells
- experiment: Enzymatic PI3K alpha isoform inhibition (lipid kinase activity, Kinase-Glo)
- particulars: enzymatic assay
pIC50: −log10 of the molar value.
observed property: pIC50

Known results for compounds:
structure_smiles=COc1ccc(-c2ccc3ncnc(-c4cc(F)cc(C(=O)N5CCN(C(C)=O)CC5)c4)c3c2)cn1 endpoint_result=6.44
structure_smiles=COc1ccc(-c2ccc3ncnc(-c4cccc(C(=O)N5CCC(O)CC5)c4)c3c2)cn1 endpoint_result=6.76
structure_smiles=COc1ncc(-c2ccc3ncnc(-c4cccc(C(=O)N5CCOCC5)c4)c3c2)cc1C#N endpoint_result=6.41

[a] CCOc1ncc(-c2ccc3ncnc(-c4cccc(C(=O)N5CCN(C)CC5)c4)c3c2)cc1C(F)(F)F
[b] COc1ncc(-c2ccc3ncnc(-c4cccc(C(=O)N5CCOC(C)(C)C5)c4)c3c2)cc1C#N
Data request: Returns: the argument ( a or b ) having the larger pIC50. Indicate your choice by writing its label.
Data returned: a

* * *

- tested on: PI3K delta (Homo sapiens, UniProt O00329)
- Construct: for the full-length p110-d subunit are generated and fused by overlapping PCR; His tag (C); made in house; host or cells: baculovirus BV1060; Tn5 (Trichoplusia ni) or TiniPro insect cells
- Sequence (O00329 with tags, fused parts or gaps limits assumed, species assumed): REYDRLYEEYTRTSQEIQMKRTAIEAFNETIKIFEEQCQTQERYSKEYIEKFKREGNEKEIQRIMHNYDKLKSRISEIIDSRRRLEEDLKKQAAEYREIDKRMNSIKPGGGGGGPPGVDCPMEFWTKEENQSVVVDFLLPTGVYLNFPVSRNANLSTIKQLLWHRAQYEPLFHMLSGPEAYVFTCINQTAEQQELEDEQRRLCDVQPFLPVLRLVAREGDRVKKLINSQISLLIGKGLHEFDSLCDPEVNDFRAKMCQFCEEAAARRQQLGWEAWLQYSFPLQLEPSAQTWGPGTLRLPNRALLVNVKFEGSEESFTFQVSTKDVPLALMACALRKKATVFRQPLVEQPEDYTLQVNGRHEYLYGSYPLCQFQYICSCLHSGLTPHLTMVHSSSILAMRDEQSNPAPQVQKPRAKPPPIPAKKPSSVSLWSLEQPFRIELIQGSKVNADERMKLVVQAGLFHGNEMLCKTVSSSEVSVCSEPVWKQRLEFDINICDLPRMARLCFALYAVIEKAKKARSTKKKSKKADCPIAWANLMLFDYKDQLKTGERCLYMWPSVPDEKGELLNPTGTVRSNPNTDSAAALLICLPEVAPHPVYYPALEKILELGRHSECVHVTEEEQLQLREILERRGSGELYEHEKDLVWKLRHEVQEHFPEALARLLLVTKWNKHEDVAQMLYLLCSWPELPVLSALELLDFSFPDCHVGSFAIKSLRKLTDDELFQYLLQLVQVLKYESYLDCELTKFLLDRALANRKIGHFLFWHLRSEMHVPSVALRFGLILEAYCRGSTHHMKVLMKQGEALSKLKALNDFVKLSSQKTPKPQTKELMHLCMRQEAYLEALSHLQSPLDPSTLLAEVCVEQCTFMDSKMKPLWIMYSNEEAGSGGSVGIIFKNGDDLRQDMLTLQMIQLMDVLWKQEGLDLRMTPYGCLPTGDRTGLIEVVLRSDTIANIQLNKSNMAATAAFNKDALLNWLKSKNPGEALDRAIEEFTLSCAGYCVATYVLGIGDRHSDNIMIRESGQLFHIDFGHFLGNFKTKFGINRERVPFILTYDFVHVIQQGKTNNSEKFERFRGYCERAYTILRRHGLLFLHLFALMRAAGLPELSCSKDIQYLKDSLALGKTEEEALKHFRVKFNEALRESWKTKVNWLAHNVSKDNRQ
- experiment: Enzymatic PI3K delta isoform inhibition (lipid kinase activity, Kinase-Glo)
- Assay type: biochemical
- particulars: enzymatic assay
pIC50: −log10 of the molar value.
observed property: pIC50

The following molecules have reported results that may help.
molecule="COc1ccc(-c2ccc3ncnc(-c4cccc(C(=O)N5C[C@@H]6C[C@H]5CN6)c4)c3c2)cc1C(F)(F)F [Example 39]" observed_property=pIC50 endpoint_result=7.94
molecule="COc1ncc(-c2ccc3ncnc(-c4ccnc(C(=O)N5CCN(C(C)=O)CC5)c4)c3c2)cn1 [Example 112]" observed_property=pIC50 endpoint_result=7.31
molecule="CCN1CCN(C(=O)c2cccc(-c3ncnc4ccc(-c5ccc(OC)nc5)cc34)c2)CC1 [Example 86]" observed_property=pIC50 endpoint_result=7.81
molecule="COc1ncc(-c2ccc3ncnc(-c4cncc(C(=O)N5CCOC(C)(C)C5)c4)c3c2)cc1C#N [Example 62]" observed_property=pIC50 endpoint_result=8.15
molecule="COc1ccc(-c2ccc3ncnc(-c4cccc(C(=O)N5CCC(O)CC5)c4)c3c2)cn1 [Example 94]" observed_property=pIC50 endpoint_result=8.22
molecule="COc1ccc(-c2ccc3ncnc(-c4cncc(C(=O)N5CCNC(C)(C)C5)c4)c3c2)cc1C(F)(F)F [Example 81]" observed_property=pIC50 endpoint_result=8.44
molecule="COc1ccc(-c2ccc3ncnc(-c4cccc(C(=O)N5CCNC(C)(C)C5)c4)c3c2)cn1 [Example 88]" observed_property=pIC50 endpoint_result=8.57
molecule="CNc1ccc(-c2ccc3ncnc(-c4cccc(C(=O)N5CCN(C)CC5)c4)c3c2)cn1 [Example 41]" observed_property=pIC50 endpoint_result=7.69

[A] CN1CCN(C(=O)c2cccc(-c3ncnc4ccc(-c5cncc(S(C)(=O)=O)c5)cc34)c2)CC1 [Example 24]
[B] COc1ncc(-c2ccc3ncnc(-c4cncc(C(=O)N5CCOC(C)(C)C5)c4)c3c2)cc1F [Example 63]
[C] COc1ncc(-c2ccc3ncnc(-c4ccnc(C(=O)N5CCN(C(C)=O)CC5)c4)c3c2)cc1C(F)(F)F [Example 114]
[D] CN1CCN(C(=O)c2cccc(-c3ncnc4ccc(-c5cnc(N(C)C)nc5)cc34)c2)CC1 [Example 11]
Data request: Ascending by pIC50, please. Please respond with the labels ordered as the question requires.
Data returned: D, A, B, C

[a] COc1ncc(-c2ccc3ncnc(-c4cccc(C(=O)N5CCN(C(C)=O)CC5)c4)c3c2)cn1 [Example 4]
[b] COc1ccc(-c2ccc3ncnc(-c4ccc(C)c(C(=O)N5CCN(C(C)=O)CC5)c4)c3c2)cn1 [Example 100]
Data request: When the recorded pIC50 values are compared, which is smaller: that of a or that of b ? Lab note: record the label of whichever item you select.
Data returned: a
(a: 8.05, b: 8.30)

* * *

- tested on: PI3K alpha (Homo sapiens, UniProt P42336)
- Construct: for the p110-a subunit (with a deletion of the first 20 amino acids) are generated; His tag (C); Tn5 (Trichoplusia ni) or TiniPro insect cells
- Sequence (P42336 with tags, fused parts or gaps limits assumed, species assumed): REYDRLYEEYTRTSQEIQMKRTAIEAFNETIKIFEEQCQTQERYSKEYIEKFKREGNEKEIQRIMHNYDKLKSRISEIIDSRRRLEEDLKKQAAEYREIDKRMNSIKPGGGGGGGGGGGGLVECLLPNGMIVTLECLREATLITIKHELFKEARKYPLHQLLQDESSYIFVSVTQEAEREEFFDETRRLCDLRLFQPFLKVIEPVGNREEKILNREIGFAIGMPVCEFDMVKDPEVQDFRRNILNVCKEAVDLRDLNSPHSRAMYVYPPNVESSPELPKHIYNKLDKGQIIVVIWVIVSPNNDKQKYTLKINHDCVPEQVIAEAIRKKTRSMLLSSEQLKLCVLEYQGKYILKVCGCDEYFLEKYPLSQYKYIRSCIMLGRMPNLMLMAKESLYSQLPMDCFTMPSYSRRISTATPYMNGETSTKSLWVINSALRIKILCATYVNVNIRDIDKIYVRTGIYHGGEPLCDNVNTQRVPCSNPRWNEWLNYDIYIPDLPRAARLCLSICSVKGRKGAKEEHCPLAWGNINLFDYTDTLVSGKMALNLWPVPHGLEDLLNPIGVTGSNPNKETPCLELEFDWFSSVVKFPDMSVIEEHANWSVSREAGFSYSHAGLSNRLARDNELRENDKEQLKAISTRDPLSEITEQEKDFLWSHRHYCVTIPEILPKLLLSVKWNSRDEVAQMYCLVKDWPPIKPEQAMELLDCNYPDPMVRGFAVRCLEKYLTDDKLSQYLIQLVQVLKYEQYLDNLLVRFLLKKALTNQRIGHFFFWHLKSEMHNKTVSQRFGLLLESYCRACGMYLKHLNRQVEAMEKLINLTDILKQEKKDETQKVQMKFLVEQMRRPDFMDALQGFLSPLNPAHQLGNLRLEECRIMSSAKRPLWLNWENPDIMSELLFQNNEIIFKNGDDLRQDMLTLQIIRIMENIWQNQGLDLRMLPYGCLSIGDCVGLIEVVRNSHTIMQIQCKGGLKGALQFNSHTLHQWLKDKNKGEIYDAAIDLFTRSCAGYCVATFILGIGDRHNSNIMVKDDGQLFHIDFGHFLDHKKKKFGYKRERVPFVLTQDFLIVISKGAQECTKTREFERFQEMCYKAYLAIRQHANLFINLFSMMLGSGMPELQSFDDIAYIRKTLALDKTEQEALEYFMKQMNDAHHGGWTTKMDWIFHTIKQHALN
- experiment: Enzymatic PI3K alpha isoform inhibition (lipid kinase activity, Kinase-Glo)
- particulars: enzymatic assay
observed property: IC50 (nM)

[A] CCN1CCN(C(=O)c2cccc(-c3ncnc4ccc(-c5ccc(OC)nc5)cc34)c2)CC1
[B] COc1ncc(-c2ccc3ncnc(-c4cncc(C(=O)N5CCN(C)CC5)c4)c3c2)cc1F
[C] COc1ncc(-c2ccc3ncnc(-c4cccc(C(=O)N5CCN(C)CC5)c4)c3c2)cn1
[D] COc1ncc(-c2ccc3ncnc(-c4cccc(C(=O)N5C[C@@H]6C[C@H]5CN6C)c4)c3c2)cc1C(F)(F)F
[E] COc1ccc(-c2ccc3ncnc(-c4cc(C(=O)N5CCN(C(C)=O)CC5)cc(C(F)(F)F)c4)c3c2)cn1
Data request: List the molecules shown above again, sorted by falling IC50 values. Labels, requested order.
Data returned: E, C, A, B, D
(E: 1270 nM, C: 779 nM, A: 380 nM, B: 193 nM, D: 75 nM)

* * *

- tested on: PI3K delta (Homo sapiens)
- Construct: for the full-length p110-d subunit are generated and fused by overlapping PCR; His tag (C); made in house; host or cells: baculovirus BV1060; Tn5 (Trichoplusia ni) or TiniPro insect cells
- experiment: Enzymatic PI3K delta isoform inhibition (lipid kinase activity, Kinase-Glo)
- Format: biochemical
- particulars: enzymatic assay
pIC50: −log10 of the molar value.
observed property: pIC50

structure_smiles=COc1ncc(-c2ccc3ncnc(-c4cc(C(=O)N5CCN(C(C)=O)CC5)cc(C(F)(F)F)c4)c3c2)cc1C#N endpoint_result=8.10
structure_smiles=CCOc1ccc(-c2ccc3ncnc(-c4cccc(C(=O)N5CCN(C)C(C)(C)C5)c4)c3c2)cn1 endpoint_result=7.73

[I] COc1ncc(-c2ccc3ncnc(-c4cccc(C(=O)N5CCN(C)CC5)c4)c3c2)cn1
[II] COc1ccc(-c2ccc3ncnc(-c4cccc(C(=O)N5CCNC[C@H]5C)c4)c3c2)cn1
Data request: Given I and given II , which shows the smaller recorded pIC50? Mark your selection by writing its label.
Data returned: II
(II: 7.64, I: 8.02)

Data provenance is patent US20140249139A1.
